Assay: ATG_PBREM_CIS: Attagene CIS-FACTORIAL HepG2 Assay for human Phenobarbital-responsive Enhancer Module (PBREM) (AID 2282955)
Details: HepG2 PBREM cis-reporter, Attagene multiplexed transcription; actives raise or lower the signal
Active and inactive are the calls of the source. The calls were made as follows: active = hit-call score of the fitted dose curve at least 0.9, where 1 is the maximum; inactive = score below 0.9.
Lab note: assign the record to one of active, inactive

Examples from the recorded data:
CC(=O)OC/C=C(\C)CCC=C(C)C :: inactive
CC(C)(C)c1cc(O)c(C(C)(C)C)cc1O :: active
COc1cccc2c1C(=O)c1c(O)c3c(c(O)c1C2=O)C[C@@](O)(C(=O)CO)C[C@@H]3O[C@H]1C[C@H](N)[C@H](O)[C@H](C)O1 :: inactive
C[Si]1(C)O[Si](C)(C)O[Si](C)(C)O[Si](C)(C)O1 :: inactive
CCOc1ccc2c(c1)C(C)=CC(C)(C)N2 :: inactive

# ---- query compound ----
Recorded test outcome, item "O=C(O)CCCCC(=O)O"
inactive

* * *

Read-out: Signal transducer and activator of transcription 3 (Homo sapiens)
Test: LTEA_HepaRG_STAT3: Life Technologies and Expression Analysis (LTEA) Assay for Signal transducer and activator of transcription (STAT3) using HepaRG (AID 2283529)
Conditions: mRNA level, 48 h; actives raise or lower the signal
Calls of active or inactive are those of the source. The calls were made as follows: active = hit-call score of the fitted dose curve at least 0.9, where 1 is the maximum; inactive = score below 0.9.
Lab note: assign the record to one of active, inactive

Cc1cccc(Nc2cc(Cl)nc(SCC(=O)O)n2)c1C :: inactive

Recorded test outcome, item "C1CCC(SSC2CCCCC2)CC1"
inactive

Recorded test outcome, item "CC(C)(C)c1cc(O)c(C(C)(C)C)cc1O"
inactive

Recorded test outcome, item "CCCCN(CCCC)CCCC"
inactive

Recorded test outcome, item "Cc1nc(C)nc(N2C[C@@H](C)N(c3ccnc([C@@H](C)O)n3)[C@@H](C)C2)n1"
inactive

Recorded test outcome, item "O=C(N[C@@H](Cc1ccccc1)[C@@H](O)C(=O)N1C[C@@H](O)[C@@H](O)C1)c1cc2cc(Cl)ccc2[nH]1"
inactive

Recorded test outcome, item "COc1cc(C=O)ccc1O"
inactive

Recorded test outcome, item "CCCCCCCCCCO"
inactive

Recorded test outcome, item "OC[C@@H](O)[C@@H](O)[C@H](O)[C@H](O)CO"
inactive

* * *

Target: human Dopamine Transporter (DAT), SLC6A3 (gene 6531) (UniProt Q01959)
Sequence (Q01959 whole entry, looked up): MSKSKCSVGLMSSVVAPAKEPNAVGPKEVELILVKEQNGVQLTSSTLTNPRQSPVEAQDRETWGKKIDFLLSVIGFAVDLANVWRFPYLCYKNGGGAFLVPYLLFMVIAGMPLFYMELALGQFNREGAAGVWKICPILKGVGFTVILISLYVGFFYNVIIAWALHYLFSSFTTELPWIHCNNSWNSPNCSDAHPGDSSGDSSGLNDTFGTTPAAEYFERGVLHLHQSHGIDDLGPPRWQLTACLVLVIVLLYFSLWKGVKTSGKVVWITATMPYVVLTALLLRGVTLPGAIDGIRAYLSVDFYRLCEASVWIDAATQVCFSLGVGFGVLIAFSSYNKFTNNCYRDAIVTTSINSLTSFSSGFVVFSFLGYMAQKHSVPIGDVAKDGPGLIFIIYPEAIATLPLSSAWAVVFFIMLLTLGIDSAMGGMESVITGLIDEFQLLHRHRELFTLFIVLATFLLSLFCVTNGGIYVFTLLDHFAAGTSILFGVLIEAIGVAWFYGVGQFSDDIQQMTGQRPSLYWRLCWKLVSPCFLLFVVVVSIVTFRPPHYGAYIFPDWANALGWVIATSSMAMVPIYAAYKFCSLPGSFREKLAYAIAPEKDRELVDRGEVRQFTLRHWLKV
Assay: NVS_TR_hDAT: NovaScreen (NVS) Transporter Assay for human Dopamine Transporter (DAT) (AID 2283374);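 also: activity means loss of bound radioligand signal relative to DMSO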
Records with an inconclusive call do not appear. The source made the active and inactive calls. The calls were made as follows: active = hit-call score of the fitted dose curve at least 0.9, where 1 is the maximum; inconclusive = response in the unintended direction; inactive = score below 0.9.
Lab note: assign the record to one of active, inactive

Recorded test outcome, item "CCc1c(C(=O)NN2CCCCC2)nn(-c2ccc(Cl)cc2Cl)c1-c1ccc(Br)cc1"
active

Recorded test outcome, item "Cc1c(C(=O)O)c(O)cc2c1C(=O)c1c(O)c([C@@H]3O[C@H](CO)[C@@H](O)[C@H](O)[C@H]3O)c(O)c(O)c1C2=O"
inactive

Recorded test outcome, item "CCCCN(CCCC)CCCC"
active

Recorded test outcome, item "CN1CCCC1=O"
active

* * *

Target: human CYP1A2, CYP1A2 (gene 1544) (UniProt P05177)
Sequence (P05177 whole entry, looked up): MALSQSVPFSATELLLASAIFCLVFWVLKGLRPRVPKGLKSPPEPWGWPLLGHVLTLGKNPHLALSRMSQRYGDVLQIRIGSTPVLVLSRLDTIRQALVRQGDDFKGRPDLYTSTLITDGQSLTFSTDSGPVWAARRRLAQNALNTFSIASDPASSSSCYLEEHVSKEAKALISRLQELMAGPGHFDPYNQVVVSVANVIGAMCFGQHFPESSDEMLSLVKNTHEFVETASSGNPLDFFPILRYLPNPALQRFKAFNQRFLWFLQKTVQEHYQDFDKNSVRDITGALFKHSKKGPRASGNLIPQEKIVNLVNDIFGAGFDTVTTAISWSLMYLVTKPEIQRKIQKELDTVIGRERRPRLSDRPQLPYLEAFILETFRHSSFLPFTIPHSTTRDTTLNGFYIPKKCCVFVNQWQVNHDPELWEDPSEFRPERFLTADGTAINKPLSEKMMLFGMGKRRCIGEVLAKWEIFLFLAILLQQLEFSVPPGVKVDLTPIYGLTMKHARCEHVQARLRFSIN
Assay: NVS_ADME_hCYP1A2: NovaScreen (NVS) CYP450-related Enzyme Activity (ADME) Assay for human CYP1A2 (AID 2283102);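 as to AC50: fluorescence from turnover of a fluorogenic substrate by recombinant insect-cell CYP1A2; potency for inhibition since loss of fluorescence marks reduced CYP1A2 activity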
The source made the active and inactive calls. Rule for the calls: active = hit-call score of the fitted dose curve at least 0.9, where 1 is the maximum; inconclusive = response in the unintended direction; inactive = score below 0.9.
Measured Property: AC50

Completed entries (count: 5):
CCOc1ccc2c(c1)C(C)=CC(C)(C)N2 :: inactive
Nc1ccc2c(c1)C(=O)c1ccccc1C2=O :: 4.65 µM (active)
Oc1ccc2c(c1)OC[C@@H](N1CCC(O)(c3ccc(F)cc3)CC1)[C@H]2O :: inactive
CC1(C)CC(N=C=O)CC(C)(CN=C=O)C1 (stereo unspecified) :: inactive
C=CCOC(=O)c1ccccc1C(=O)OCC=C :: 3.03 µM (active)

Field request: AC50 | item: "CCOC(=O)CCC(=O)OCC"
inactive

* * *

Read-out: E-selectin (Homo sapiens)
Test: BSK_SAg_Eselectin: BioMAP Diversity Plus: SAg Assay for Eselectin Biomarker Activity (AID 2283091)
Conditions: primary human HUVEC with PBMC; actives raise or lower the signal
Active and inactive are the calls of the source. Rule for the calls: active = hit-call score of the fitted dose curve at least 0.9, where 1 is the maximum; inactive = score below 0.9.
Lab note: assign the record to one of active, inactive

Examples from the recorded data:
C1CCC(SSC2CCCCC2)CC1 :: active
CC(=O)OC/C=C(\C)CCC=C(C)C :: inactive
O=[N+]([O-])C(CO)(CO)CO :: inactive
CN[C@H]1CC[C@@H](c2ccc(Cl)c(Cl)c2)c2ccc(S(N)(=O)=O)cc21 :: active
CCOC(=O)CCC(=O)OCC :: inactive
CC(C)(C)c1cc(O)c(C(C)(C)C)cc1O :: active

Recorded test outcome, item "C=CCc1ccc(O)c(OC)c1"
active

* * *

Target: human Peroxisome Proliferator-activated Receptor delta (PPARd), PPARD (gene 5467) (UniProt Q03181)
Sequence (Q03181 whole entry, looked up): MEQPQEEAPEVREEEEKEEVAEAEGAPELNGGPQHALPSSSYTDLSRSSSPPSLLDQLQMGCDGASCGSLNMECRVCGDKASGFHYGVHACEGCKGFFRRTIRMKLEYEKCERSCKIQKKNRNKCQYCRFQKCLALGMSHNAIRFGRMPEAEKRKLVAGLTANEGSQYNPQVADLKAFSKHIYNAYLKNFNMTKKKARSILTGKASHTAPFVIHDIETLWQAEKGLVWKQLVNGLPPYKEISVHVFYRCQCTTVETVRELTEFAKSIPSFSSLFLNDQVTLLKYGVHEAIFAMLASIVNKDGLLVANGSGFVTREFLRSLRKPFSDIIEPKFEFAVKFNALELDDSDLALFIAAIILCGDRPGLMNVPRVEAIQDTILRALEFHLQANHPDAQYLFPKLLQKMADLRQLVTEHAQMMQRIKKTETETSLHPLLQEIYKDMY
Test: ATG_PPARd_TRANS: Attagene TRANS-FACTORIAL HepG2 Assay for human Peroxisome Proliferator-activated Receptor delta (PPARd) (AID 2283002)
Inconclusive results are not listed. Calls of active or inactive are those of the source. How the source made its calls: active means hit-call score of the fitted dose curve at least 0.9, where 1 is the maximum; inconclusive means response in the unintended direction; inactive means score below 0.9.
Lab note: assign the record to one of yes (1) for active, no (0) for inactive

Examples from the recorded data:
C[Si]1(C)O[Si](C)(C)O[Si](C)(C)O[Si](C)(C)O1 :: no (0)
Clc1cc(Cl)c(Cl)cc1Cl :: no (0)
Cc1oc(-c2ccccc2)nc1CCOc1cccc2c1ccn2CCC(=O)O :: yes (1)
CCCCC(CC)COC(=O)CC(C(=O)OCC(CC)CCCC)S(=O)(=O)O (configuration not stated) :: no (0)
CN[C@H]1CC[C@@H](c2ccc(Cl)c(Cl)c2)c2ccc(S(N)(=O)=O)cc21 :: no (0)

Recorded test outcome, item "O=C(OCCCCCOC(=O)c1ccccc1)c1ccccc1"
no (0)

Recorded test outcome, item "CCOc1ccc2c(c1)C(C)=CC(C)(C)N2"
yes (1)

Recorded test outcome, item "Nc1ccccc1N"
no (0)

Recorded test outcome, item "Oc1ccc2c(c1)OC[C@@H](N1CCC(O)(c3ccc(F)cc3)CC1)[C@H]2O"
no (0)

Recorded test outcome, item "Cc1ccc(C)c(O)c1C"
no (0)

Recorded test outcome, item "CCNc1cccc(C)c1"
no (0)

Recorded test outcome, item "CCc1c(C(=O)NN2CCCCC2)nn(-c2ccc(Cl)cc2Cl)c1-c1ccc(Br)cc1"
no (0)

* * *

Read-out: Cytochrome P450 (CYP1A1), CYP1A1 (gene 1543)
Test: LTEA_HepaRG_CYP1A1: Life Technologies and Expression Analysis (LTEA) Assay for Cytochrome P450 (CYP1A1) using HepaRG (AID 2283454)
Conditions: mRNA level, 48 h; actives raise or lower the signal
Activity calls are given as the source filed them. How the source made its calls: active means hit-call score of the fitted dose curve at least 0.9, where 1 is the maximum; inactive means score below 0.9.
Measured Property: AC50

Completed entries (count: 5):
Nc1ccccc1N :: 3.28 µM (active)
O=c1[nH]cc(F)c(=O)[nH]1 :: inactive
COC(=O)c1ccc(O)cc1 :: inactive
FC(F)(F)C(F)(F)C(F)(F)C(F)(F)C(F)(F)C(F)(F)CCI :: inactive
Cc1cccc(Nc2cc(Cl)nc(SCC(=O)O)n2)c1C :: 50 µM (active)

Field request: AC50 | item: "Cc1oc(-c2ccccc2)nc1CCOc1cccc2c1ccn2CCC(=O)O"
inactive

Field request: AC50 | item: "NCCO"
50 µM (active)

Field request: AC50 | item: "Oc1ccc2c(c1)OC[C@@H](N1CCC(O)(c3ccc(F)cc3)CC1)[C@H]2O"
inactive

* * *

Assay: APR_HepG2_CellLoss_72hr: Apredica 72-hour HepG2 Assay for Cell Loss (AID 2282915)
Conditions: high-content imaging
Calls of active or inactive are those of the source. Rule for the calls: active = hit-call score of the fitted dose curve at least 0.9, where 1 is the maximum; inactive = score below 0.9.
Measured Property: AC50

O=C(N[C@@H](Cc1ccccc1)[C@@H](O)C(=O)N1C[C@@H](O)[C@@H](O)C1)c1cc2cc(Cl)ccc2[nH]1 :: 104 µM (active)
CCCCCCCCCCO :: inactive
CC1=C(/C=C/C(C)=C/C=C/C(C)=C/CO)C(C)(C)CCC1 :: 96.6 µM (active)
CCCCOC(=O)CCCCCCCCC(=O)OCCCC :: inactive
CCCCCCCCCCCC(=O)OC :: inactive

Field request: AC50 | item: "NCC1(Cc2noc(=O)[nH]2)CCCCC1"
inactive

Field request: AC50 | item: "C[Si]1(C)O[Si](C)(C)O[Si](C)(C)O[Si](C)(C)O1"
inactive

* * *

Read-out: Thrombomodulin, THBD (gene 7056)
Assay: BSK_3C_Thrombomodulin: BioMAP Diversity Plus: 3C Assay for Thrombomodulin Biomarker Activity (AID 2283029)
Conditions: primary human endothelial cells (HUVEC); actives raise or lower the signal
Experimental: BSK_3C is a cell-based, multiplexed-readout assay that uses umbilical vein endothelium, a human vascular primary cell, with measurements taken at 24 hours after chemical dosing in a 96-well plate.BSK_3C_Thrombomodulin is an assay component measured in the BSK_3C assay. It measures Thrombomodulin antibody related to regulation of gene expression using ELISA technology.Data from the assay component BSK_3C_Thrombomodulin was analyzed into 1 assay endpoint. […]
Calls of active or inactive are those of the source. How the source made its calls: active means hit-call score of the fitted dose curve at least 0.9, where 1 is the maximum; inactive means score below 0.9.
Measured Property: AC50

Completed entries (count: 4):
OC[C@@H](O)[C@@H](O)[C@H](O)[C@H](O)CO :: inactive
CCCCCCOCCO :: inactive
Cc1nc(-c2ccc3c(c2)CCN(CCC2CCC(NC(=O)/C=C/c4ccc(F)cc4)CC2)CC3)no1 (stereo unspecified) :: 9.3 µM (active)
COc1ccc(S(=O)(=O)N2C(=O)[C@@](c3ccccc3OC)(N3C[C@H](O)C[C@H]3C(=O)N(C)C)c3cc(Cl)ccc32)c(OC)c1 :: inactive

Field request: AC50 | item: "Cc1ccc(C)c(C)c1"
inactive

Field request: AC50 | item: "Cc1cc(NC(=O)C(=O)O)cc(C)c1Oc1ccc(O)c2c1CCC2"
inactive

Field request: AC50 | item: "CCCCOC(=O)CCCCCCCCC(=O)OCCCC"
inactive

Field request: AC50 | item: "C[C@]12C=CC(=O)C=C1CC[C@@H]1[C@@H]2C(=O)C[C@@]2(C)[C@H]1CC[C@]2(O)C(=O)CO"
inactive

Field request: AC50 | item: "CC(C)c1ccc(C(=O)N=C(N)N)cc1S(C)(=O)=O"
inactive

Field request: AC50 | item: "Cc1oc(-c2ccccc2)nc1CCOc1cccc2c1ccn2CCC(=O)O"
inactive

Field request: AC50 | item: "CCOC(=O)C(C)(C)Oc1ccc(Cl)cc1"
inactive
